# maps each entry to its DC50
tested_on: B-RAF V600E (Homo sapiens, UniProt P15056, V600E)
Construct: expressed in transfected cells; host or cells: T-Rex 293 cells (Invitrogen #R71007)
Sequence (P15056 whole entry V600E): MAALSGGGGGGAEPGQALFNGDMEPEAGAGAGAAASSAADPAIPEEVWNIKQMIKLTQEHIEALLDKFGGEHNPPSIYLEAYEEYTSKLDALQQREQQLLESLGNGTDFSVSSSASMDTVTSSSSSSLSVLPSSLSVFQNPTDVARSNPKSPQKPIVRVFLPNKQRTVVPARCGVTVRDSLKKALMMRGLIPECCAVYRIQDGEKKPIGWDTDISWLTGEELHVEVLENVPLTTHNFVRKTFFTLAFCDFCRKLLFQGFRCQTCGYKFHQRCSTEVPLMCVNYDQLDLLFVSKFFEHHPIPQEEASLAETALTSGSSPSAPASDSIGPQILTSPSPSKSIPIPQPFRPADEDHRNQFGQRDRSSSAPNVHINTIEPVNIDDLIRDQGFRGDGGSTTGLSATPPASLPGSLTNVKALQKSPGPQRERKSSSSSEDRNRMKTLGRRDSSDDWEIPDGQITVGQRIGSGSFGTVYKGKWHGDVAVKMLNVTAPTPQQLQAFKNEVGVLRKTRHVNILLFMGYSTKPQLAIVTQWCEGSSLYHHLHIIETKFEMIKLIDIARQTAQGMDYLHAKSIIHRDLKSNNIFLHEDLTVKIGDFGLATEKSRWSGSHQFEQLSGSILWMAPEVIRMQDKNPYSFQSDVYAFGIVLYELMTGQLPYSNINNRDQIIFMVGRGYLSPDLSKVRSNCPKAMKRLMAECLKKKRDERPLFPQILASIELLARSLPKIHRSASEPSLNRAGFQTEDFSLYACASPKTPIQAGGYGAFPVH
experiment_summary: Target protein degradation, assay C: T-Rex 293 cells, HA-BRAF_V600E, 384 well format
Assay type: cell-based
condition_context: Assay C, T-Rex 293 HA-BRAF_V600E cells, 24 hours, Examples 83-269

Cc1cc(N2CCC(CN3CCN(c4ccc(-n5cnc6ccc(Oc7c(F)ccc(NS(=O)(=O)N8CC[C@@H](F)C8)c7C#N)cc6c5=O)cc4)CC3)CC2)c(F)c2c1C(=O)N(C1CCC(=O)NC1=O)C2 (some centres unmarked) [Example 94] :: 5 to 50 nM
N#Cc1c(NS(=O)(=O)N2CC[C@@H](F)C2)ccc(F)c1Oc1ccc2ncn(-c3ccc(C4CCN([C@H]5C[C@H](OC6CCN(c7ccc8c(c7)CN(C7CCC(=O)NC7=O)C8=O)CC6)C5)CC4)cc3)c(=O)c2c1 (some centres unmarked) [Example 249] :: > 500 nM
N#Cc1c(NS(=O)(=O)N2CC[C@@H](F)C2)ccc(F)c1Oc1ccc2ncn(-c3ccc(N4CCN(CC5CN(c6cc(F)c7c(c6)CN(C6CCC(=O)NC6=O)C7=O)C5)CC4)cc3)c(=O)c2c1 (some centres unmarked) [Example 247] :: 50 to 500 nM

Measured DC50 of N#Cc1c(NS(=O)(=O)N2CC[C@@H](F)C2)ccc(F)c1Oc1ccc2ncn(-c3ccc(C4CCCN(CC5CCN(c6ccc7c(c6)CN([C@H]6CCC(=O)NC6=O)C7=O)CC5)C4)cc3)c(=O)c2c1 (some centres unmarked) [Example 207] : 50 to 500 nM

Measured DC50 of N#Cc1c(NS(=O)(=O)N2CCC(F)C2)ccc(F)c1Oc1ccc2ncn(-c3ccc(N4CCN(CC5CN(c6ccc7c(c6)CN(C6CCC(=O)NC6=O)C7=O)C5)CC4)cc3)c(=O)c2c1 (centres unmarked) [Example 194] : 50 to 500 nM
